# system: HA-GST-Rheb (GTP-γ-S loaded) activating mTORC1 (Homo sapiens (Human))
# Sequence (Q15382 1-181): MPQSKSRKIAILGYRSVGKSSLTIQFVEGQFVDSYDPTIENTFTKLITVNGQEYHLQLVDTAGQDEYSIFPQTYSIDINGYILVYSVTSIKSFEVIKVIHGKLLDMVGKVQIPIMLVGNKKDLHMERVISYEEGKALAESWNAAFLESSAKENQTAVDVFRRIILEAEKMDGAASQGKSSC
# assayNotes: Rheb-dependent in vitro kinase assay (Rheb-IVK; LanthaScreen or Western readout)
# Type: biochemical
# conditions: Rheb-dependent in vitro kinase assay; read-out: IVK IC50
pIC50: −log10 of the molar value.
We begin with a simple list: items and their reported pIC50.

* Cn1ccc2c(Nc3ccccc3)cccc21 | < 4.00
* Cn1ccc2c(Oc3ccc(F)cc3)cccc21 | < 4.00
* Clc1ccc2[nH]c(-c3cnco3)cc2c1Oc1ccccc1 | 4.00 to 5.00

Query: pIC50; subject: OCc1nc2c(OCC3CCCCO3)c(Cl)c(Cl)cc2[nH]1 (centres unmarked) < 4.00

Next up: CCn1c(CO)nc2ccc(OCc3ccccc3)cc21 < 4.00

Where do these numbers come from? They come from patent US11339144B2.
